Origin of the recorded values: patent US20250163072A1

This listing pairs molecules with measured IC50.
assayed.system: KRAS G12D binding to BRAF (Homo sapiens (Human), UniProt P01116+P62937, G12D)
Sequence (P01116-2 other isoform, or with tags, fused parts or gaps G12D): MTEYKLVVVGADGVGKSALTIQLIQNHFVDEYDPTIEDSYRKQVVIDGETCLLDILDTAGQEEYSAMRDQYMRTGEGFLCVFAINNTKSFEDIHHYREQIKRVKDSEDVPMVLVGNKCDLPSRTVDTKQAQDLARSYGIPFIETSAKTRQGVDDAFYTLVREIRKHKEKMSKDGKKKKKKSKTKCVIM
Sequence (P62937 whole entry): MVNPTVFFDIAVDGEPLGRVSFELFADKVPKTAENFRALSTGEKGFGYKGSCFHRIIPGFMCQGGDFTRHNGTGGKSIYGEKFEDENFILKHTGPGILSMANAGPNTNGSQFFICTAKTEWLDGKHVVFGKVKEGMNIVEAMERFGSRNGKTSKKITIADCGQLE
assay.protocol: KRAS-BRAF with CYPA (50 nM) interaction assay (TR-FRET), G12D
experimental.parameters: GMPPNP loaded 6His-KRAS, GST-BRAF RBD
assay.metric: IC50 (nM)

molecule	measurement.units	value.comparator	assay.result
CCn1c(-c2cc(N3CCN(CC(F)(F)F)CC3)cnc2[C@H](C)OC)c2c3cc(ccc31)-c1csc(n1)C[C@H](NC(=O)[C@H](C(C)C)N(C)C(=O)[C@H]1CCN(C(=O)[C@H](F)Cl)C1)C(=O)N1CCC[C@H](N1)C(=O)OCC(C)(C)C2 (atropisomer, axis not shown; (M)) [Example 26]	nM	=	2720
CCn1c(-c2cc(N3CCN(C)CC3)cnc2[C@H](C)OC)c2c3cc(ccc31)-c1csc(n1)C[C@H](NC(=O)[C@H](C(C)C)N1CCCC3(CCN(C(=O)[C@H](F)Cl)C3)C1=O)C(=O)N1CCC[C@H](N1)C(=O)OCC(C)(C)C2 (stereo partly drawn) [Example 18]	nM	>	10000
CO[C@@H](C)c1ncc(N2CCOCC2)cc1-c1c2c3cc(ccc3n1CC(F)(F)F)-c1csc(n1)C[C@H](NC(=O)[C@H](C(C)C)N(C)C(=O)[C@H]1CCN(C(=O)[C@H](F)Cl)C1)C(=O)N1CCC[C@H](N1)C(=O)OCC(C)(C)C2 (atropisomer, axis not shown; (M)) [Example 25]	nM	>	10000
CCn1c(-c2cccnc2[C@H](C)OC)c2c3cc(ccc31)-c1cc(O)cc(c1)C[C@H](NC(=O)[C@H](C(C)C)N(C)C(=O)C1CC(C=O)C1)C(=O)N1CCC[C@H](N1)C(=O)OCC(C)(C)C2 (stereo partly drawn) [Example 3]	nM	=	1030
CO[C@@H](C)c1ncc(N2CCN(C)CC2)cc1-c1c2c3cc(ccc3n1CC(F)(F)F)-c1csc(n1)C[C@H](NC(=O)[C@H](C(C)C)N(C)C(=O)[C@H]1CCN(C(=O)[C@H](F)Cl)C1)C(=O)N1CCC[C@H](N1)C(=O)OCC(C)(C)C2 (atropisomer, axis not shown; (M)) [Example 21]	nM	>	10000
CCn1c(-c2cc(N3CCN(C)CC3)cnc2[C@H](C)OC)c2c3cc(ccc31)-c1cc(O)cc(c1)C[C@H](NC(=O)[C@H](C(C)C)N(C)C(=O)[C@H]1CCN(C(=O)[C@H](F)Cl)C1)C(=O)N1CCC[C@H](N1)C(=O)OCC(C)(C)C2 (atropisomer, axis not shown; (M)) [Example 12]	nM	=	6

----------
assay.protocol: Human hepatocytes stability assay
Format: in vitro ADME
experimental.parameters: 1 μM compound, human hepatocytes 1×10^6 cells/mL
CL_hep (Human) vs 10 mL/min/kg: at or above is Y, below is N.

compound	class
CCn1c(-c2cccnc2[C@H](C)OC)c2c3cc(ccc31)-c1cc(O)cc(c1)C[C@H](NC(=O)[C@H](C(C)C)N(C)C(=O)C1CN(C(=O)CCl)C1)C(=O)N1CCC[C@H](N1)C(=O)OCC(C)(C)C2 [RM461, reference compound]	Y
CO[C@@H](C)c1ncc(N2CCN(C)CC2)cc1-c1c2c3cc(ccc3n1CC(F)(F)F)-c1csc(n1)C[C@H](NC(=O)[C@H](C(C)C)N(C)C(=O)[C@H]1CCN(C(=O)[C@H](F)Cl)C1)C(=O)N1CCC[C@H](N1)C(=O)OCC(C)(C)C2 (atropisomer, axis not shown; (M)) [Example 21]	N
CO[C@@H](C)c1ncc(N2CCN(C)CC2)cc1-c1c2c3cc(ccc3n1CC(F)(F)F)-c1csc(n1)C[C@H](NC(=O)[C@H](C(C)C)N1CC[C@]3(CCN(C(=O)[C@H](F)Cl)C3)C1=O)C(=O)N1CCC[C@H](N1)C(=O)OCC(C)(C)C2 [Example 23]	N
CC(C)[C@@H](C(=O)N[C@H]1Cc2cc(O)cc(c2)-c2ccc3c(C(C)(C)C#N)cn(c3c2)CC(C)(C)COC(=O)[C@@H]2CCCN(N2)C1=O)N1CCCC2(CCN(C(=O)CCl)C2)C1=O (some centres unmarked) [RM351, reference compound]	Y
CCn1c(-c2cc(N3CCN(C)CC3)cnc2[C@H](C)OC)c2c3cc(ccc31)-c1csc(n1)C[C@H](NC(=O)[C@H](C(C)C)N(C)C(=O)[C@H]1CCN(C(=O)[C@H](F)Cl)C1)C(=O)N1CCCC(N1)C(=O)OCC(C)(C)C2 (some centres unmarked) [Example 10]	N
CCn1c(-c2cccnc2COC)c2c3cc(ccc31)-c1cc(O)cc(c1)C[C@H](NC(=O)[C@H](C(C)C)N(C)C(=O)C1CN(C(=O)[C@H](F)Cl)C1)C(=O)N1CCC[C@H](N1)C(=O)OCC(C)(C)C2 [RM461-A]	N

----------
assayed.system: KRAS G12V binding to BRAF (Homo sapiens (Human), UniProt P01116+P62937, G12V)
Sequence (P01116-2 other isoform, or with tags, fused parts or gaps G12V, one chain of several): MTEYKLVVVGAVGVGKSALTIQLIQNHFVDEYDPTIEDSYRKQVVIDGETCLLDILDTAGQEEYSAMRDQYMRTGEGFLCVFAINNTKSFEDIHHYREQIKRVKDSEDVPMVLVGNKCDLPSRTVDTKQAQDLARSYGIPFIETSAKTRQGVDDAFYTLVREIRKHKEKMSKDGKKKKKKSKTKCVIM
assay.protocol: KRAS-BRAF with CYPA (50 nM) interaction assay (TR-FRET), G12V
experimental.parameters: GMPPNP loaded 6His-KRAS, GST-BRAF RBD
assay.metric: log10(IC50) (log10 of the value in nM)

molecule	assay.metric	assay.result
CCn1c(-c2cccnc2[C@H](C)OC)c2c3cc(ccc31)-c1cc(O)cc(c1)C[C@H](NC(=O)[C@H](C(C)C)N(C)C(=O)[C@H]1CCN(C(=O)/C=C/n3cncn3)C1)C(=O)N1CCC[C@H](N1)C(=O)OCC(C)(C)C2 (atropisomer, axis not shown; (M))	log10(IC50)	2.01
CCn1c(-c2cccnc2[C@H](C)OC)c2c3cc(ccc31)-c1cc(O)cc(c1)C[C@H](NC(=O)[C@H](C(C)C)N(C)C(=O)C1CC(C=O)C1)C(=O)N1CCC[C@H](N1)C(=O)OCC(C)(C)C2 (stereo partly shown)	log10(IC50)	2.04
CCn1c(-c2cc(N3CCN(CC(F)(F)F)CC3)cnc2[C@H](C)OC)c2c3cc(ccc31)-c1csc(n1)C[C@H](NC(=O)[C@H](C(C)C)N(C)C(=O)[C@H]1CCN(C(=O)[C@H](F)Cl)C1)C(=O)N1CCC[C@H](N1)C(=O)OCC(C)(C)C2 (atropisomer, axis not shown; (M))	log10(IC50)	2.30
CCn1c(-c2cc(N3CCN(C)CC3)cnc2[C@H](C)OC)c2c3cc(ccc31)-c1cc(O)cc(c1)C[C@H](NC(=O)[C@H](C(C)C)N(C)C(=O)[C@H]1CCN(C(=O)[C@H](F)Cl)C1)C(=O)N1CCC[C@H](N1)C(=O)OCC(C)(C)C2 (atropisomer, axis not shown; (M))	log10(IC50)	0.48
CCn1c(-c2cccnc2[C@H](C)OC)c2c3cc(ccc31)-c1cc(O)cc(c1)C[C@H](NC(=O)[C@H](C(C)C)N(C)C(=O)[C@H]1CCN(C(=O)C(F)Cl)C1)C(=O)N1CCC[C@H](N1)C(=O)OCC(C)(C)C2 (stereo partly shown)	log10(IC50)	1.40
CO[C@@H](C)c1ncc(N2CCN(C)CC2)cc1-c1c2c3cc(ccc3n1CC(F)(F)F)-c1csc(n1)C[C@H](NC(=O)[C@H](C(C)C)N(C)C(=O)C1(F)CCN(C(=O)[C@H](F)Cl)CC1)C(=O)N1CCC[C@H](N1)C(=O)OCC(C)(C)C2 (atropisomer, axis not shown; (M))	log10(IC50)	3.07

----------
Test system: AGS cells
assay.protocol: Cell viability assay, AGS
Type: cell-based, human
experimental.parameters: Homo sapiens, 72 hours, Cell Counting Kit-8, read-out: G12D IC50
This listing pairs compounds with measured IC50.
assay.metric: IC50 (µM)

compound	assay.metric	measurement.units	value.comparator	assay.result
CO[C@@H](C)c1ncc(N2CCN(C)CC2)cc1-c1c2c3cc(ccc3n1CC(F)(F)F)-c1csc(n1)C[C@H](NC(=O)[C@H](C(C)C)N1CC[C@]3(CCN(C(=O)[C@H](F)Cl)C3)C1=O)C(=O)N1CCC[C@H](N1)C(=O)OCC(C)(C)C2	IC50	µM	=	3.41
CCn1c(-c2cc(N3CCN(CC(F)(F)F)CC3)cnc2[C@H](C)OC)c2c3cc(ccc31)-c1csc(n1)C[C@H](NC(=O)[C@H](C(C)C)N(C)C(=O)[C@H]1CCN(C(=O)[C@H](F)Cl)C1)C(=O)N1CCC[C@H](N1)C(=O)OCC(C)(C)C2 (atropisomer, axis not shown; (M))	IC50	µM	=	0.14
CCn1c(-c2cccnc2[C@H](C)OC)c2c3cc(ccc31)-c1cc(O)cc(c1)C[C@H](NC(=O)[C@H](C(C)C)N(C)C(=O)C1CCN(C(=O)C#CCN3CCOCC3)C1)C(=O)N1CCC[C@H](N1)C(=O)OCC(C)(C)C2 (stereo partly drawn) [RM018, reference compound]	IC50	µM	>	10
CCn1c(-c2cc(N3CCN(C)CC3)cnc2[C@H](C)OC)c2c3cc(ccc31)-c1csc(n1)C[C@H](NC(=O)[C@H](C(C)C)N(C)C(=O)[C@H]1CCN(C(=O)[C@H](F)Cl)C1)C(=O)N1CCCC(N1)C(=O)OCC(C)(C)C2 (stereo partly drawn)	IC50	µM	=	0.052
CCn1c(-c2cccnc2COC)c2c3cc(ccc31)-c1cc(O)cc(c1)C[C@H](NC(=O)[C@H](C(C)C)N(C)C(=O)C1CN(C(=O)[C@H](F)Cl)C1)C(=O)N1CCC[C@H](N1)C(=O)OCC(C)(C)C2	IC50	µM	=	7.92
CO[C@@H](C)c1ncc(N2CCOCC2)cc1-c1c2c3cc(ccc3n1CC(F)(F)F)-c1csc(n1)C[C@H](NC(=O)[C@H](C(C)C)N(C)C(=O)[C@H]1CCN(C(=O)[C@H](F)Cl)C1)C(=O)N1CCC[C@H](N1)C(=O)OCC(C)(C)C2 (atropisomer, axis not shown; (M))	IC50	µM	=	0.094
CCn1c(-c2cccnc2[C@H](C)OC)c2c3cc(ccc31)-c1cc(O)cc(c1)C[C@H](NC(=O)[C@H](C(C)C)N(C)C(=O)C1CN(C(=O)CCl)C1)C(=O)N1CCC[C@H](N1)C(=O)OCC(C)(C)C2 [RM461, reference compound]	IC50	µM	=	2.71
CCn1c(-c2cccnc2[C@H](C)OC)c2c3cc(ccc31)-c1cc(O)cc(c1)C[C@H](NC(=O)[C@H](C(C)C)N(C)C(=O)C1CC(C=O)C1)C(=O)N1CCC[C@H](N1)C(=O)OCC(C)(C)C2 (stereo partly drawn)	IC50	µM	=	1.3
CO[C@@H](C)c1ncc(N2CCN(C)CC2)cc1-c1c2c3cc(ccc3n1CC(F)(F)F)-c1csc(n1)C[C@H](NC(=O)[C@H](C(C)C)N(C)C(=O)[C@H]1CCN(C(=O)[C@H](F)Cl)C1)C(=O)N1CCC[C@H](N1)C(=O)OCC(C)(C)C2 (atropisomer, axis not shown; (M))	IC50	µM	=	0.044
